target: T1, human MSLN-FL-his protein (human, UniProt Q13421 296-580); assay: SPR (Biacore), antibody captured on Protein A chip;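 note: measured at 25 °C, analyte injected 240 s in five twofold dilutions from 200 nM, dissociation up to 600 s, double-referenced, fitted with Langmuir 1:1 model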
T1 construct: made in HEK293E cells, purified on nickel column; also called hMSLN-FL-his; human MSLN full-length protein; not shown: His tag
T1 sequence (Q13421 other isoform, or with tags, fused parts or gaps): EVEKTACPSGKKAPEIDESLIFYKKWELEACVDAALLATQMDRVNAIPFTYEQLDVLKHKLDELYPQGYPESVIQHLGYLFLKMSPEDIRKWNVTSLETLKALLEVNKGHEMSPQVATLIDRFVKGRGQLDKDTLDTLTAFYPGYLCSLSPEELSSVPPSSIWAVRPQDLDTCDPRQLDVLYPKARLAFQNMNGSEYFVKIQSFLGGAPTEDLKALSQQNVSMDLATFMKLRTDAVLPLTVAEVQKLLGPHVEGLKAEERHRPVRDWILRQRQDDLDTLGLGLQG
Each item that follows carries a reported kon.
Express it in M⁻¹ s⁻¹; write the number only.

Example binders with recorded kon:
S009-F2.23.12 (antibody, human IgG1, kappa, V domains shown, human-murine chimeric antibody, human IgG1/kappa constant regions) VH: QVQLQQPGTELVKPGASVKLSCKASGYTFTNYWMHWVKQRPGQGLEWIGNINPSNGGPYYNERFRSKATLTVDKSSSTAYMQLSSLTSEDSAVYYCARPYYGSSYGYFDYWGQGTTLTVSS VL: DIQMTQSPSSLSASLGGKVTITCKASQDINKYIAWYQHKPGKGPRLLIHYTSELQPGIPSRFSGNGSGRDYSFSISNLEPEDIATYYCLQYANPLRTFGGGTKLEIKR = 81900
S009-F1.56.1 (antibody, human IgG1, kappa, V domains shown, human-murine chimeric antibody, human IgG1/kappa constant regions) VH: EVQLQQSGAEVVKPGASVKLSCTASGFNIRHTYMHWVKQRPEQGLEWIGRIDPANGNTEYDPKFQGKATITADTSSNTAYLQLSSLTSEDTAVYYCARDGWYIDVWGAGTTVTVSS VL: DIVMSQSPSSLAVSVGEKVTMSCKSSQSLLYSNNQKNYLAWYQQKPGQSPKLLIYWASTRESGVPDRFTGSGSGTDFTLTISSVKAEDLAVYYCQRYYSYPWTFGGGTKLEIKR = 799000

Continue with the binder presented below.
Consider the binder S009-F1.35.24 (antibody, human IgG1, kappa, V domains shown, human-murine chimeric antibody, human IgG1/kappa constant regions) VH: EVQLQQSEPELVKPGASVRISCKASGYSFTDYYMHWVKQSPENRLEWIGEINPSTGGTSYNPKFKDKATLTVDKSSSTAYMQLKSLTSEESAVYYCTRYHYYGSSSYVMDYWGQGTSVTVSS VL: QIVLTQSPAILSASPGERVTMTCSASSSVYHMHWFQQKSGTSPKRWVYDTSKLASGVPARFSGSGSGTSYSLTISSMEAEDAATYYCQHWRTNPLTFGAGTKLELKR and give its measured kon.
93100
